# maps each entry to its kinase still bound, per cent of control
SUBJECT OF TEST: PRKACA (human) (UniProt P17612)
METHOD: KINOMEscan competition binding
CONDITION SUMMARY: compound 10.0 µM

| COMPOUND | kinase still bound, per cent of control |
| --- | --- |
| COc1cc(C(=O)NC2CCN(C)CC2)ccc1Nc1ncc2c(n1)N(C1CCCC1)C(C)CC(=O)N2C (centres undefined) | 100% |
| O=C1Nc2ccc(I)cc2/C1=C/c1cc(Br)c(O)c(Br)c1 | 100% |
| OCCCNc1cc(-c2ccnc(Nc3cccc(Cl)c3)n2)ccn1 | 100% |
| Nc1ccc(-c2ccc3ncc4ccc(=O)n(-c5cccc(C(F)(F)F)c5)c4c3c2)cn1 | 100% |
| CCCS(=O)(=O)Nc1ccc(F)c(C(=O)c2c[nH]c3ncc(-c4ccc(Cl)cc4)cc23)c1F | 100% |
| CN(C)C/C=C/C(=O)Nc1cccc(Nc2ncc3c(n2)N(C)c2ccccc2C(=O)N3C)c1 | 100% |
| Cn1c(=O)n(-c2ccc(C(C)(C)C#N)cc2)c2c3cc(-c4cnc5ccccc5c4)ccc3ncc21 | 100% |
| O=C(O)c1ccc(Nc2ncc3c(n2)-c2ccc(Cl)cc2C(c2c(F)cccc2F)=NC3)cc1 | 47% |
| O=C(NC1CC1)c1cccc(-c2ccc3c(NC(=O)C4CC4)n[nH]c3c2)c1 | 100% |
| CC[C@@H]1C(=O)N(C)c2cnc(Nc3ccc(C(=O)NC4CCN(C)CC4)cc3OC)nc2N1C1CCCC1 | 100% |
| CCOc1cc2ncc(C#N)c(Nc3ccc(OCc4ccccn4)c(Cl)c3)c2cc1NC(=O)/C=C/CN(C)C | 95% |
| Cc1cc([C@@H](C)Nc2ccccc2C(=O)O)c2nc(N3CCOCC3)cc(=O)n2c1 | 100% |
| COc1cc(C(=O)NC2CCN(C)CC2)ccc1Nc1ncc2c(n1)N(C1CCCC1)CCC(=O)N2C(C)C | 100% |
| Cc1ccc(NC(=O)c2cccc(C(C)(C)C#N)c2)cc1Nc1ccc2ncn(C)c(=O)c2c1 | 100% |
| C=CC(=O)Nc1cccc(Oc2nc(Nc3ccc(N4CCN(C)CC4)cc3OC)ncc2Cl)c1 | 100% |
| N#Cc1c(NC(=O)c2cccc3ccccc23)sc2c1CCCC2 | 78% |
| C=CC(=O)Nc1cccc(Nc2nc(N[C@H]3CC[C@H](N(C)C)CC3)nc3c2ncn3C(C)C)c1 | 100% |
| COc1cc(N2CCN(C)CC2)ccc1Nc1nc(N)c(C(=O)c2c(Cl)cccc2Cl)s1 | 91% |
| Cc1ccc(C(=O)Nc2cccc(C(F)(F)F)c2)cc1Nc1cncc(C(N)=O)c1 | 100% |
